Kindly supply the reported scaled log2 fold change values for the records listed here.
B1: library; numbered along this chain (parent)
chain: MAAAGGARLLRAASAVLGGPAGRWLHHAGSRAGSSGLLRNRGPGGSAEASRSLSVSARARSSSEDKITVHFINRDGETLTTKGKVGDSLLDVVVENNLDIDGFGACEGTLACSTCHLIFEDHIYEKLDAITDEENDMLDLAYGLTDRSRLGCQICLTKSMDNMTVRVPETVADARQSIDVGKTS

variants of: B1; experiment: scaled log2 fold change in cell abundance, elesclomol vs control (0 = silent mean, 1 = nonsense mean) (scaled log2 ratio); higher = higher viability under elesclomol (loss of FDX1 cuproptosis function); details: with ABC1 FDX1 KO; elesclomol 5 nM; glucose 10 mM; 14 days;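 note: variant abundance is its share of total variant reads in each endpoint sample, from next-generation sequencing of the integrated ORF PCR-amplified out of genomic DNA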
Numbers only.

Below, each entry is followed by its recorded scaled log2 fold change result.
INSERT INTO results (mutation_code, value_measured) VALUES
  ('C152H', 1.12),
  ('A105H', -1.17),
  ('A12M', -0.178),
  ('D132W', -0.0682);

List scaled log2 fold change for every entry below, keeping the order given.
1. P20T
2. Y142K
3. E48N
4. T183G

[A]
[0.221, 0.0326, 0.628, 0.353]

State recorded scaled log2 fold change for all listed variants.
1. G44R
2. E77G
3. R11D
4. S34I

[A]
0.286
0.311
0.509
-0.128
